SYSTEM TESTED: rat P2X7 receptor, rP2X7-ΔBallast (Rattus norvegicus, UniProt Q64663)
pEC50: −log10 of the molar value.
QUANTITY NAME: pEC50

>  <COMPOUND>
Nc1ncnc2c1ncn2[C@@H]1O[C@H](COP(=O)(O)OP(=O)(O)OP(=O)(O)O)[C@@H](O)[C@H]1O [ATP]

>  <OBS VALUE>
4.28

$$$$

---

SYSTEM TESTED: rat P2X7 receptor (rP2X7) (Rattus norvegicus)
Sequence (Q64663 whole entry): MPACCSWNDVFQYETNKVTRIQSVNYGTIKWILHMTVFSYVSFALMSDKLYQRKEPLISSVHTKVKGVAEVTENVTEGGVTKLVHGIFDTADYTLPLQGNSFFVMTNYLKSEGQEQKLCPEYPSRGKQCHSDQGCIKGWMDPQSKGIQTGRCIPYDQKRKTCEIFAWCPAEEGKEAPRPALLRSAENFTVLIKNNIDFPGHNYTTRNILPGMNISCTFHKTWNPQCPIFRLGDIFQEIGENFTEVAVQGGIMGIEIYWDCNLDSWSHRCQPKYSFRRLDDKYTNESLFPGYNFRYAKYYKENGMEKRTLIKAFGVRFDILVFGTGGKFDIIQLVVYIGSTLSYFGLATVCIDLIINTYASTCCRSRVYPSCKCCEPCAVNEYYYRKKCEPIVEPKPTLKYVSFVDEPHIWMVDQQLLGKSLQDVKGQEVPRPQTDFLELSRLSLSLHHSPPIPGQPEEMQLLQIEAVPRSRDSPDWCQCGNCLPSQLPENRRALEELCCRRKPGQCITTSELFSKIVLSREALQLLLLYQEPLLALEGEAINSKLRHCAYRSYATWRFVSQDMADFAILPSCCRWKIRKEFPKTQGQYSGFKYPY
pKi: −log10 of the molar value.
Each entry below lists one item and its recorded pKi value.

>  <SMILES INPUT>
Nc1ccn([C@@H]2O[C@H](COP(=O)(O)OP(=O)(O)OP(=O)(O)O)[C@@H](O)[C@H]2O)c(=O)n1

>  <SYSTEM TESTED>
rat P2X7 receptor (rP2X7) (Rattus norvegicus)

>  <pKi>
3.89

$$$$
>  <SMILES INPUT>
O=c1ccn([C@@H]2O[C@H](COP(=O)(O)OP(=O)(O)OP(=O)(O)O)[C@@H](O)[C@H]2O)c(=O)[nH]1

>  <SYSTEM TESTED>
rat P2X7 receptor (rP2X7) (Rattus norvegicus)

>  <pKi>
4.22

$$$$
>  <SMILES INPUT>
Nc1nc2c(ncn2[C@@H]2O[C@H](COP(=O)(O)OP(=O)(O)OP(=O)(O)O)[C@@H](O)[C@H]2O)c(=O)[nH]1

>  <SYSTEM TESTED>
rat P2X7 receptor (rP2X7) (Rattus norvegicus)

>  <pKi>
6.82

$$$$
>  <SMILES INPUT>
Nc1nc2c(ncn2[C@@H]2O[C@H](COP(=O)(O)OP(=O)(O)OP(O)(O)=S)[C@@H](O)[C@H]2O)c(=O)[nH]1

>  <SYSTEM TESTED>
rat P2X7 receptor (rP2X7) (Rattus norvegicus)

>  <pKi>
7.00

$$$$

---

SYSTEM TESTED: UniProt:Q64663
ASSAY INFO: cryo-EM structure

>  <COMPOUND>
Nc1ncnc2c1ncn2[C@@H]1O[C@H](COP(=O)(O)OP(=O)(O)OP(=O)(O)O)[C@@H](O)[C@H]1O [ATP]

>  <EC50, µM>
42

$$$$
